molecules and their reported pIC50
- System: HDAC
- assay_notes: HDAC fluorimetric assay kit (AK-500, Biomol), HeLa nuclear extract
- Format: biochemical
pIC50: −log10 of the molar value.

{"molecule": "C[C@@H](Nc1ncnc2[nH]c(-c3ccc(CNCc4ccc(C(=O)NO)cc4)cc3)cc12)c1ccccc1 [Compound 44]", "pIC50": "6.00 to 7.00"}

Now for a further molecule.
State its pIC50 for this molecule: C[C@@H](Nc1ncnc2[nH]c(-c3ccc(CN4CCN(CCCCCCC(=O)NO)CC4)cc3)cc12)c1ccccc1 [Compound 16]
6.00 to 7.00

* * *

- Tested on: HDAC
- assay_notes: HDAC fluorimetric assay kit (AK-500, Biomol), HeLa nuclear extract
- Type: biochemical
pIC50: −log10 of the molar value.
compounds and their reported pIC50

Worked cases, answers included:
{"smiles_record": "O=C(CCCCCCOc1ccc(-c2cc3c(NCc4ccccc4)ncnc3[nH]2)cc1)NO", "pIC50": "> 7.00"}
{"smiles_record": "C[C@@H](Nc1ncnc2c1cc(-c1ccc(N)cc1)n2CCCCCC(=O)NO)c1ccccc1", "pIC50": "6.00 to 7.00"}
{"smiles_record": "C[C@@H](Nc1ncnc2[nH]c(-c3ccc(CN4CCN(CCCC(=O)NO)CC4)cc3)cc12)c1ccccc1", "pIC50": "5.00 to 6.00"}
{"smiles_record": "C[C@@H](Nc1ncnc2[nH]c(-c3ccc(CN4CCC(NCCCCCC(=O)NO)CC4)cc3)cc12)c1ccccc1", "pIC50": "5.00 to 6.00"}
{"smiles_record": "C[C@@H](Nc1ncnc2[nH]c(-c3ccc(CNCC(=O)NO)cc3)cc12)c1ccccc1", "pIC50": "5.00 to 6.00"}
{"smiles_record": "C[C@@H](Nc1ncnc2[nH]c(-c3ccc(NCc4ccc(C(=O)NO)cc4)cc3)cc12)c1ccccc1", "pIC50": "6.00 to 7.00"}

State its pIC50 for this compound: C[C@@H](Nc1ncnc2[nH]c(-c3ccc(NC(=O)CCCCC(=O)NO)cc3)cc12)c1ccccc1
> 7.00
